- System: antiserum (antibody raised in rabbits to the antigen of Example I, N-TFA-p-aminoamphetamine coupled to BSA)
- PROTOCOL: Radioimmune assay for amphetamine: competitive inhibition of 3H-d-amphetamine binding to, and cross-reactivity of, antiserum raised to the antigen of Example I
- CONDITION DESCRIPTION: method of Abraham, relative quantity that produces 50% inhibition x 100, d-amphetamine = 100
READOUT KIND: Percent Cross-Reactivity (%)
Output spec: scalar in %, unitless text.

Completed entries (count: 2):
Any idea what Percent Cross-Reactivity was measured for C[C@H](N)Cc1ccccc1 [d-amphetamine] ?
100

Again, but for C[C@@H](N)Cc1ccccc1 [1-amphetamine]
1.45

Continuing:
What value of measured Percent Cross-Reactivity is listed for NCCc1ccc(O)cc1 [tyramine] ?
3.4

Also, CN[C@@H](C)Cc1ccccc1 [methadrine] please.
0.45
